- target-system: GlcNAc(b1-3)Gal(b1-4)GlcNAc(b1-3)Gal(b1-4)GlcNAc
- method-notes: glycan array binding signal (z-score within array); higher = stronger binding
- assay-context: glycan notation: IUPAC condensed, linker removed
Shown is part of a subset that was picked to be rich in the strongest signals.

# binder, glycan array binding signal (z-score)
data = [
    ("TbCVNHOb (Tuber borchii) (protein) MSFYASSEDVRTIEEGGRTWLVGRARRADGSWQDIKLDLDNIIGNRDGHLTWGEQNFTQSASDIRFNFEGGSNVPVLRAKLRNAAGGEQESDLNLGERLTNNNGDLVFN", -0.144),
    ("LlpA (Arthrobacter sp) (protein) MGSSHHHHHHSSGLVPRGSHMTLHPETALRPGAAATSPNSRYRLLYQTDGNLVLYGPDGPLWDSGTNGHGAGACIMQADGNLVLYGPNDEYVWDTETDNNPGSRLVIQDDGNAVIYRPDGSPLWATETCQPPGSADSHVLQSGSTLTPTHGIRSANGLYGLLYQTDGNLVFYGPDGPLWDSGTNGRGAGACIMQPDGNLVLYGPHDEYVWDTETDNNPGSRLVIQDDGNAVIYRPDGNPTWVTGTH", -0.689),
    ("PILRa (Homo sapiens), Q9UKJ1 (protein) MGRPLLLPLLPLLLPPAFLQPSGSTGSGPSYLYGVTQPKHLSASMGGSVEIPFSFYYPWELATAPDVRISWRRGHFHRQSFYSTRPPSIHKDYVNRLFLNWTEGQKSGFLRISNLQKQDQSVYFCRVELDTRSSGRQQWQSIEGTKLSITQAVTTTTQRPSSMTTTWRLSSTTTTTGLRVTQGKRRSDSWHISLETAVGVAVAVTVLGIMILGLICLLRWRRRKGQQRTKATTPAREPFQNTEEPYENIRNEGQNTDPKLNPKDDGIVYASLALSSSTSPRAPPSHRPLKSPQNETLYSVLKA", -0.259),
]
